test: Rodent pharmacokinetic study; format: in vivo, Male Wister rats; settings: plasma; Wistar/Male rat, 10 mg/kg, oral (gavage)
Label criterion met when Cmax >= 900 ng/mL; otherwise criterion not met.

Before answering, review these 3 worked examples.
CC(C)CCN1CCC(c2nnc(-c3cc(Cl)c(N)c4c3OCCC4)o2)CC1 | criterion not met
Nc1c(Cl)cc(-c2nnc(CCCN3CCCCC3)o2)c2c1CCCO2.O=C(O)C(O)C(O)C(=O)O | criterion not met
Nc1c(Cl)cc(-c2nnc(C3CCN(C4CCC4)CC3)o2)c2c1CCCO2 | criterion not met

Query molecule follows.
Ask: Test whether the molecule `CCOC(=O)N1CCC(N2CCC(c3nnc(-c4cc(Cl)c(N)c5c4OCCC5)o3)CC2)CC1` records Cmax of 900 ng/mL or higher.
Result: criterion met

====

assay: Rodent pharmacokinetic study; type: in vivo, Male Wister rats; settings: male, Wistar, rat, plasma, iv, 5 mg/kg
ENDPOINT: Cmax
A bare number is not enough; add the unit after it.

Ask: If you can, please state the reported Cmax value of `Nc1c(Cl)cc(-c2nnc(CC3CCN(C4CCCC4)CC3)o2)c2c1CCCO2.O=C(O)C(=O)O` .
Result: 750 ng/mL

====

experiment: Rodent pharmacokinetic study; assay type: in vivo, Male Wister rats; settings: male, Wistar, rat, plasma, po, 10 mg/kg
ENDPOINT: bioavailability (%)
// return numeric value only (unit: %, not printed)

Ask: Item under review: `Nc1c(Cl)cc(-c2nnc(CC3CCN(C4CCCC4)CC3)o2)c2c1CCCO2.O=C(O)C(=O)O` . Reported bioavailability?
Result: 85

====

assay: Rodent pharmacokinetic study; format: in vivo, Male Wister rats; conditions: plasma; Wistar/Male rat, 10 mg/kg oral vs 5 mg/kg intravenous
Answer class 0 if bioavailability is under 70%, and class 1 if it is 70% or more.

The following compounds have reported results that may help.
CCOC(=O)N1CCC(N2CCC(c3nnc(-c4cc(Cl)c(N)c5c4OCCC5)o3)CC2)CC1 | class 1
Nc1c(Cl)cc(-c2nnc(C3CCN(C4CCC4)CC3)o2)c2c1CCCO2 | class 0

Ask: Given `CC(C)CCN1CCC(c2nnc(-c3cc(Cl)c(N)c4c3OCCC4)o2)CC1` , state whether its bioavailability is at least 70%.
Result: class 0

Ask: Please answer likewise for `Nc1c(Cl)cc(-c2nnc(CCCN3CCCCC3)o2)c2c1CCCO2.O=C(O)C(O)C(O)C(=O)O`
Result: class 0

====

Test: Rodent pharmacokinetic study
Type: in vivo, Male Wister rats
Conditions: male, Wistar, rat, plasma, iv, 5 mg/kg
Description: Three to five animals were housed in each cage. […] Animals were fasted over night before oral dosing (p.o) and food pellets were allowed 2 hours post dosing, whereas intravenous dosing food and water were provided as ad libitum. […] Pharmacokinetic parameters Cmax, Tmax, AUCt, T1/2 and Bioavailability were calculated by non-compartmental model using standard non-compartmental model by using WinNonLin 5.0.1 or Phoenix WinNonlin 6.2 version Software package.
ENDPOINT: half-life (h)
Provide only the numeric value, understood in h.

Ask: State the recorded half-life for this entry: `Nc1c(Cl)cc(-c2nnc(CC3CCN(C4CCCC4)CC3)o2)c2c1CCCO2.O=C(O)C(=O)O`
Result: 1.79

====

biological target: recombinant human 5-HT4 receptor (Homo sapiens (Human)); assay: Determination of EC50 values for 5-HT4 receptor (CHO cells, pCRE-Luc reporter); details: CHO cells expressing human 5-HT4 receptor, luciferase activity, 4 hours incubation
Sequence (Q13639 whole entry): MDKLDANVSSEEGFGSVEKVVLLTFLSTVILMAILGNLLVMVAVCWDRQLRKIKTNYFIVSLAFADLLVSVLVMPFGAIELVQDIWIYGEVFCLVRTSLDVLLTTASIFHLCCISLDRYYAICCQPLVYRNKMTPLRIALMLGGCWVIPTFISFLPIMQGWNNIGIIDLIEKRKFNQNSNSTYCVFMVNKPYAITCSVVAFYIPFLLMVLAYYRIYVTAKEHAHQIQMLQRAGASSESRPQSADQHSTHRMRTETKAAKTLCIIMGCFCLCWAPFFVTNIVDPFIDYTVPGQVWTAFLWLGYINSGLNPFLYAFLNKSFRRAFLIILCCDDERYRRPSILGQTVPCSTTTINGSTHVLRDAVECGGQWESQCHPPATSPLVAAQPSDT
Counter-ions that a name gives are not always drawn.
ENDPOINT: EC50
Note: a bare number is incomplete; add the unit.

// worked examples, EC50 included
Nc1c(Cl)cc(-c2nnc(C3CCN(C4CC4)CC3)o2)c2c1OCCO2 [Example 29, oxalate salt] | 21.5 nM
CC(C)N1CCC(c2nnc(-c3cc(Cl)c(N)c4c3OCCC4)o2)CC1 [Example 12] | 15.3 nM
Nc1c(Cl)cc(-c2nnc(C3CCN(C4CCCC4)CC3)o2)c2c1CCCO2 [Example 17] | 2.3 nM
CC(C)n1nc(-c2nnc(CCN3CCCCC3)o2)c2ccccc21 [Example 49, oxalate] | 181 nM
CC(C)N1CC2C(C1)C2c1nnc(-c2cc(Cl)c(N)c3c2OCCC3)o1 (centres unmarked) [Example 22, oxalate salt] | 48 nM

Ask: What value of EC50 on recombinant human 5-HT4 receptor (Homo sapiens (Human)) does CCOC(=O)N1CCC(N2CCC(c3nnc(-c4cc(Cl)c(N)c5c4OCCC5)o3)CC2)CC1 [Example 19] have?
Result: 6.8 nM

Ask: Param item: Nc1c(Cl)cc(-c2nnc(C3CCN(C4CCC4)CC3)o2)c2c1OCCO2 [Example 16]
Result: 13.3 nM

Ask: For Nc1c(Cl)cc(-c2nnc(C3C4CN(CC5CCC5)CC43)o2)c2c1CCCO2 (centres unmarked) [Example 23, oxalate salt] then?
Result: 20 nM

====

experiment: Rodent pharmacokinetic study; format: in vivo, Male Wister rats; settings: plasma; Wistar/Male rat, 5 mg/kg, intravenous (bolus)
ENDPOINT: AUC(0-t)
Answer by giving the amount and then stating its unit.

Some compounds with recorded AUC(0-t):
Nc1c(Cl)cc(-c2nnc(CCCN3CCCCC3)o2)c2c1CCCO2.O=C(O)C(O)C(O)C(=O)O | 867 ng·h/mL
CC(C)CCN1CCC(c2nnc(-c3cc(Cl)c(N)c4c3OCCC4)o2)CC1 | 836 ng·h/mL

Ask: Look at this compound and give its reported AUC(0-t). `COCCN1CCC(c2nnc(-c3cc(Cl)c(N)c4c3OCCC4)o2)CC1`
Result: 1320 ng·h/mL

Ask: Another compound to check: `CCOC(=O)N1CCC(N2CCC(c3nnc(-c4cc(Cl)c(N)c5c4OCCC5)o3)CC2)CC1`
Result: 2370 ng·h/mL

Ask: Item: `CC(C)n1nc(-c2nnc(C3CCN(CC4CC4)CC3)o2)c2ccccc21`
Result: 1060 ng·h/mL

Ask: Can you check `Nc1c(Cl)cc(-c2nnc(C3CCN(C4CCC4)CC3)o2)c2c1CCCO2` next?
Result: 773 ng·h/mL

====

assay: Rodent pharmacokinetic study; format: in vivo, Male Wister rats; conditions: male, Wistar, rat, plasma, iv, 5 mg/kg
ENDPOINT: Tmax (min)
Provide the reading as a plain figure in min.

Ask: // returns reported Tmax for input `Nc1c(Cl)cc(-c2nnc(CC3CCN(C4CCCC4)CC3)o2)c2c1CCCO2.O=C(O)C(=O)O`
Result: 4.8

====

assay: Rodent pharmacokinetic study; assay type: in vivo, Male Wister rats; conditions: plasma; Wistar/Male rat, 5 mg/kg, intravenous (bolus)
Catalogue of half-life values
Unit h implied. Number only.

// solved cases for half-life follow
CC(C)CCN1CCC(c2nnc(-c3cc(Cl)c(N)c4c3OCCC4)o2)CC1 | 1.38
Nc1c(Cl)cc(-c2nnc(C3CCN(C4CCC4)CC3)o2)c2c1CCCO2 | 1.22
CCOC(=O)N1CCC(N2CCC(c3nnc(-c4cc(Cl)c(N)c5c4OCCC5)o3)CC2)CC1 | 2.21
COCCN1CCC(c2nnc(-c3cc(Cl)c(N)c4c3OCCC4)o2)CC1 | 1.03
Nc1c(Cl)cc(-c2nnc(CCCN3CCCCC3)o2)c2c1CCCO2.O=C(O)C(O)C(O)C(=O)O | 0.8

Next up:
Ask: Name the reported half-life value associated with the compound `CC(C)n1nc(-c2nnc(C3CCN(CC4CC4)CC3)o2)c2ccccc21`
Result: 1.65

====

assay: Rodent pharmacokinetic study; type: in vivo, Male Wister rats; conditions: plasma; Wistar/Male rat, 10 mg/kg, oral (gavage)
Listing of entries alongside the reported Tmax.
Please respond with the number in min and leave the unit unwritten.

// solved cases for Tmax follow
Nc1c(Cl)cc(-c2nnc(C3CCN(C4CCC4)CC3)o2)c2c1CCCO2 | 15
CCOC(=O)N1CCC(N2CCC(c3nnc(-c4cc(Cl)c(N)c5c4OCCC5)o3)CC2)CC1 | 30

Ask: Entry `COCCN1CCC(c2nnc(-c3cc(Cl)c(N)c4c3OCCC4)o2)CC1` : reported Tmax = ?
Result: 19.8

Ask: Next: `CC(C)CCN1CCC(c2nnc(-c3cc(Cl)c(N)c4c3OCCC4)o2)CC1`
Result: 40.2

====

experiment: Rodent pharmacokinetic study; type: in vivo, Male Wister rats; details: male, Wistar, rat, plasma, po, 10 mg/kg
ENDPOINT: Cmax (ng/mL)
Your answer should be a plain number; it is taken to be in ng/mL.

Ask: // Cmax lookup, key: `Nc1c(Cl)cc(-c2nnc(CC3CCN(C4CCCC4)CC3)o2)c2c1CCCO2.O=C(O)C(=O)O`
Result: 553

====

test: Rodent pharmacokinetic study; type: in vivo, Male Wister rats; conditions: male, Wistar, rat, plasma, iv, 5 mg/kg
ENDPOINT: AUC(0-t) (ng·h/mL)
Numeric only. Scale: ng·h/mL

Ask: Query: AUC(0-t); subject: `Nc1c(Cl)cc(-c2nnc(CC3CCN(C4CCCC4)CC3)o2)c2c1CCCO2.O=C(O)C(=O)O`
Result: 876
